- TESTED_TARGET: PH domain of PDK1 (Homo sapiens)
- Sequence (O15530 459-550 limits assumed): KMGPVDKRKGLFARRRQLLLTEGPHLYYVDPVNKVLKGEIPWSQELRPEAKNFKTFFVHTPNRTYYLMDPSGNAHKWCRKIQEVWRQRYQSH
PROPERTY_MEASURED: Kd (µM)
The answer is to be given in µM; state only the numeric part.

// query Kd value for entry Cc1c(O)cc2c(c1C)O[C@@](C)(CCCC(C)C)CC2 [Compound 3]
10.2

====

- TESTED_TARGET: PH domain of ILK (Homo sapiens)
- Sequence (Q13418 180-212 limits assumed): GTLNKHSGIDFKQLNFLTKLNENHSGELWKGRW
PROPERTY_MEASURED: pKd
Kindly note that pKd refers to -log10 of the concentration in mol/L and answer with the value alone.

// query pKd value for entry Cc1c(O)cc2c(c1C)O[C@@](C)(CCCC(C)C)CC2 [Compound 3]
5.06

====

- TESTED_TARGET: PH domain of PHLPP1 (Homo sapiens)
- Sequence (O60346 536-636 limits assumed): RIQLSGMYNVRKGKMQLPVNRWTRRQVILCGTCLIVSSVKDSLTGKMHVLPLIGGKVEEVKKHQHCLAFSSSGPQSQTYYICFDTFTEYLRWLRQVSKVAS
PROPERTY_MEASURED: Kd (nM)
The answer is to be given in nM; state only the numeric part.

// query Kd value for entry "Cc1c(O)cc2c(c1C)O[C@@](C)(CCCC(C)C)CC2"
690
